Conditions: human gut metagenome, 24 h, 2 µM; further: call rule not given here
property.name: Bacterial Biotransformation

Please review the entries below; each comes with its answer.
[[record]]
compound = "CC[C@H](C)C(=O)O[C@H]1CCC=C2C=C[C@H](C)[C@H](CC[C@@H]3C[C@@H](O)CC(=O)O3)[C@H]21"
measured_result = "Compound metabolized"

[[record]]
compound = "CCN(CC)C(=O)C1(c2ccccc2)CC1CN (centres undefined)"
measured_result = "Compound NOT metabolized"

[[record]]
compound = "CC(=O)O[C@H]1C(=O)[C@@]2(C)[C@H]([C@H](OC(=O)c3ccccc3)[C@]3(O)C[C@H](OC(=O)[C@H](O)[C@@H](NC(=O)c4ccccc4)c4ccccc4)C(C)=C1C3(C)C)[C@]1(OC(C)=O)CO[C@@H]1C[C@@H]2O"
measured_result = "Compound metabolized"

[[record]]
compound = "CCCN(CCC)CCc1cccc2c1CC(=O)N2"
measured_result = "Compound NOT metabolized"


Continue with the next compound.
// sample COc1cc(NC(C)CCCN)c2ncccc2c1.O=P(O)(O)O.O=P(O)(O)O (centres undefined) [PRIMAQUINE PHOSPHATE] , its Bacterial Biotransformation was Compound metabolized
